# test: Selectivity ratio of Ki for NET to IC50 for DAT
Record satisfied whenever Ratio is at 9 or higher; record not satisfied when lower.

Does the reported Ratio for COC(=O)[C@H]1[C@@H](c2ccc(SC)cc2)C[C@@H]2CC[C@H]1N2C fall at or above the 9 mark?
satisfied

Has COC(=O)[C@H]1[C@@H](c2ccc(SC)c(Br)c2)C[C@@H]2CC[C@H]1N2C a recorded Ratio greater than or equal to 9?
satisfied

For this molecule, is measured Ratio 9 or higher? CCSc1ccc([C@H]2CC3CCC(N3)[C@H]2C(=O)OC)cc1 (stereo not given in full)
not satisfied

Confirm if Ratio reported for the molecule CCCN1C2CCC1[C@@H](C(=O)OC)[C@@H](c1ccc(SC)cc1)C2 (stereo not given in full) is 9 or above.
satisfied

State whether the measured Ratio reaches 9, counting equality as reaching it, for COC(=O)[C@H]1[C@@H](c2ccc(SC(C)C)cc2)C[C@@H]2CC[C@H]1N2C
not satisfied

Test whether the molecule COC(=O)[C@@H]1C2CCC(C[C@@H]1c1ccc(SC)cc1)N2 (stereo not given in full) records Ratio of 9 or higher.
not satisfied

Is Ratio at least 9? Consider CCSc1ccc([C@H]2CC3CCC([C@H]2C(=O)OC)N3CCCF)cc1 (stereo not given in full)
not satisfied
